Target: PSG G322A (PSD-95)
Assay: FP displacement (competition) of FITC-15 AA CRIPT by library peptide, IC50 and Ki
Conditions: read-out: Ki (µM), PSG G322A; FP displacement of FITC-15 AA CRIPT probe by acetylated PSD library peptide

compound | assayed-system | measurement-unit | Ki
CC(=O)N[C@@H](Cc1ccc(O)cc1)C(=O)N[C@@H](C)C(=O)N1CCC[C@H]1C(=O)N[C@@H](C)C(=O)N[C@H](C(=O)N[C@@H](CO)C(=O)N1CCC[C@H]1C(=O)N1CCC[C@H]1C(=O)N[C@@H](CCC(=O)O)C(=O)N[C@@H](CCCNC(=N)N)C(=O)N[C@@H](C)C(=O)N[C@@H](CC(C)C)C(=O)N[C@@H](CO)C(=O)N[C@@H](CCCCN)C(=O)N[C@@H](CC(C)C)C(=O)O)[C@@H](C)O [TUTLB] | PSG G322A (PSD-95) | µM | 752

====

Molecular target: PSG G322A (PSD-95)
Experiment: FP displacement (competition) of FITC-15 AA CRIPT by library peptide, IC50 and Ki
Conditions: read-out: IC50 (µM), PSG G322A; FP displacement of FITC-15 AA CRIPT probe by acetylated PSD library peptide

compound | assayed-system | IC50, µM
CC[C@H](C)[C@H](NC(=O)[C@H](CCC(=O)O)NC(=O)[C@H](CCC(=O)O)NC(=O)[C@@H](NC(=O)[C@@H](NC(=O)[C@H](CO)NC(=O)[C@H](CCC(=O)O)NC(=O)[C@H](Cc1ccc(O)cc1)NC(C)=O)[C@@H](C)O)[C@@H](C)O)C(=O)N[C@@H](CCC(=O)O)C(=O)N[C@@H](CC(C)C)C(=O)N[C@@H](CCC(=O)O)C(=O)N[C@@H](CC(=O)O)C(=O)N[C@H](C(=O)N[C@@H](CCC(=O)O)C(=O)N[C@@H](CS)C(=O)O)C(C)C [VSTM5] | PSG G322A (PSD-95) | 86

====

Biological target: PSG (PSD-95)
Experiment: FP displacement (competition) of FITC-15 AA CRIPT by library peptide, IC50 and Ki
Settings: read-out: Ki (µM), PSG; FP displacement of FITC-15 AA CRIPT probe by acetylated PSD library peptide
Ki by entry:

substance-smiles | Ki (µM)
CC(=O)N[C@@H](Cc1ccc(O)cc1)C(=O)N[C@@H](CC(N)=O)C(=O)N[C@@H](CO)C(=O)N[C@H](C(=O)N[C@@H](CC(N)=O)C(=O)N[C@@H](CC(C)C)C(=O)N1CCC[C@H]1C(=O)N[C@@H](Cc1c[nH]cn1)C(=O)NCC(=O)N[C@@H](Cc1c[nH]cn1)C(=O)N[C@@H](CO)C(=O)N[C@H](C(=O)N[C@H](C(=O)N[C@@H](CCCNC(=N)N)C(=O)N[C@H](C(=O)O)C(C)C)[C@@H](C)O)[C@@H](C)O)[C@@H](C)O | 78
CC(=O)N[C@@H](Cc1ccc(O)cc1)C(=O)N[C@@H](CC(C)C)C(=O)N1CCC[C@H]1C(=O)N[C@@H](CC(C)C)C(=O)N[C@@H](CC(=O)O)C(=O)N[C@H](C(=O)N[C@@H](CCC(N)=O)C(=O)N[C@@H](CCC(=O)O)C(=O)NCC(=O)N[C@@H](CC(=O)O)C(=O)N[C@@H](Cc1ccccc1)C(=O)N[C@@H](CCC(N)=O)C(=O)N[C@H](C(=O)N[C@@H](CCC(=O)O)C(=O)N[C@H](C(=O)O)C(C)C)[C@@H](C)O)C(C)C | 459
CC[C@H](C)[C@H](NC(=O)[C@@H](NC(=O)[C@H](CCCCN)NC(=O)[C@H](CCCCN)NC(=O)CNC(=O)[C@H](CC(C)C)NC(=O)[C@H](CCCCN)NC(=O)[C@H](C)NC(=O)[C@H](CCSC)NC(=O)[C@H](CCCNC(=N)N)NC(=O)[C@H](CCSC)NC(=O)[C@H](CCCNC(=N)N)NC(=O)[C@H](CC(C)C)NC(=O)[C@H](C)NC(=O)[C@H](Cc1ccc(O)cc1)NC(C)=O)C(C)C)C(=O)O | 493
CC[C@H](C)[C@H](NC(=O)[C@H](Cc1ccc(O)cc1)NC(=O)[C@H](CO)NC(=O)CNC(=O)[C@H](CO)NC(=O)[C@H](CCC(N)=O)NC(=O)[C@H](Cc1ccc(O)cc1)NC(C)=O)C(=O)N[C@@H](Cc1c[nH]c2ccccc12)C(=O)N[C@H](C(=O)N1CCC[C@H]1C(=O)N[C@@H](C)C(=O)N[C@@H](CCCCN)C(=O)N[C@@H](CCC(=O)O)C(=O)N[C@@H](CCCCN)C(=O)N[C@@H](CC(C)C)C(=O)O)C(C)C | 628

====

Target: PSG G322A (PSD-95)
Assay: FP displacement (competition) of FITC-15 AA CRIPT by library peptide, IC50 and Ki
Conditions: read-out: IC50 (µM), PSG G322A; FP displacement of FITC-15 AA CRIPT probe by acetylated PSD library peptide

substance-smiles | assayed-system | IC50
CC(=O)N[C@@H](Cc1ccc(O)cc1)C(=O)N[C@@H](CC(C)C)C(=O)N1CCC[C@H]1C(=O)N[C@@H](CC(C)C)C(=O)N[C@@H](CC(=O)O)C(=O)N[C@H](C(=O)N[C@@H](CCC(N)=O)C(=O)N[C@@H](CCC(=O)O)C(=O)NCC(=O)N[C@@H](CC(=O)O)C(=O)N[C@@H](Cc1ccccc1)C(=O)N[C@@H](CCC(N)=O)C(=O)N[C@H](C(=O)N[C@@H](CCC(=O)O)C(=O)N[C@H](C(=O)O)C(C)C)[C@@H](C)O)C(C)C | PSG G322A (PSD-95) | 342 µM
CC(=O)N[C@@H](Cc1ccc(O)cc1)C(=O)N[C@@H](CC(N)=O)C(=O)N[C@@H](CO)C(=O)N[C@H](C(=O)N[C@@H](CC(N)=O)C(=O)N[C@@H](CC(C)C)C(=O)N1CCC[C@H]1C(=O)N[C@@H](Cc1c[nH]cn1)C(=O)NCC(=O)N[C@@H](Cc1c[nH]cn1)C(=O)N[C@@H](CO)C(=O)N[C@H](C(=O)N[C@H](C(=O)N[C@@H](CCCNC(=N)N)C(=O)N[C@H](C(=O)O)C(C)C)[C@@H](C)O)[C@@H](C)O)[C@@H](C)O | PSG G322A (PSD-95) | 72 µM
CC[C@H](C)[C@H](NC(=O)[C@H](Cc1ccccc1)NC(=O)[C@H](Cc1ccc(O)cc1)NC(=O)[C@@H]1CCCN1C(=O)[C@H](CCC(N)=O)NC(=O)[C@H](Cc1ccc(O)cc1)NC(C)=O)C(=O)N[C@H](C(=O)N[C@@H](CC(N)=O)C(=O)N[C@@H](CO)C(=O)N[C@@H](CCCCN)C(=O)N[C@H](C(=O)N[C@@H](CCC(=O)O)C(=O)N[C@H](C(=O)N[C@H](C(=O)N[C@H](C(=O)O)C(C)C)[C@@H](C)O)C(C)C)[C@@H](C)O)[C@@H](C)O | PSG G322A (PSD-95) | 756 µM
CSCC[C@H](NC(=O)[C@H](CCC(N)=O)NC(=O)[C@H](CC(=O)O)NC(=O)[C@H](Cc1ccc(O)cc1)NC(=O)[C@H](CC(=O)O)NC(=O)[C@@H]1CCCN1C(=O)[C@H](CO)NC(=O)[C@H](CCCCN)NC(=O)[C@H](CC(C)C)NC(=O)[C@H](Cc1ccc(O)cc1)NC(C)=O)C(=O)N[C@@H](CO)C(=O)N[C@@H](CO)C(=O)N[C@@H](CO)C(=O)N1CCC[C@H]1C(=O)N[C@@H](CS)C(=O)O | PSG G322A (PSD-95) | 2060 µM
CC[C@H](C)[C@H](NC(=O)[C@H](CO)NC(=O)[C@@H](NC(=O)[C@@H](NC(=O)[C@@H]1CCCN1C(=O)[C@H](CC(C)C)NC(=O)[C@H](C)NC(=O)[C@@H]1CCCN1C(=O)[C@H](Cc1ccc(O)cc1)NC(C)=O)[C@@H](C)O)C(C)C)C(=O)N[C@@H](CO)C(=O)N[C@@H](CO)C(=O)N[C@@H](CO)C(=O)N[C@@H](C)C(=O)N[C@@H](CCC(=O)O)C(=O)N[C@H](C(=O)O)C(C)C | PSG G322A (PSD-95) | 1460 µM
CC[C@H](C)[C@H](NC(=O)[C@H](CO)NC(=O)[C@H](CCC(N)=O)NC(=O)[C@H](CCCNC(=N)N)NC(=O)[C@H](CCCCN)NC(=O)[C@H](CO)NC(=O)[C@H](CC(=O)O)NC(=O)[C@@H]1CCCN1C(=O)[C@H](Cc1ccc(O)cc1)NC(C)=O)C(=O)N[C@@H](CC(C)C)C(=O)N[C@@H](Cc1ccccc1)C(=O)N[C@@H](CO)C(=O)N[C@H](C(=O)N[C@@H](CCC(=O)O)C(=O)N[C@H](C(=O)O)C(C)C)[C@@H](C)O | PSG G322A (PSD-95) | 27 µM
CC(=O)N[C@@H](Cc1ccc(O)cc1)C(=O)N[C@@H](C)C(=O)N1CCC[C@H]1C(=O)N[C@@H](C)C(=O)N[C@H](C(=O)N[C@@H](CO)C(=O)N1CCC[C@H]1C(=O)N1CCC[C@H]1C(=O)N[C@@H](CCC(=O)O)C(=O)N[C@@H](CCCNC(=N)N)C(=O)N[C@@H](C)C(=O)N[C@@H](CC(C)C)C(=O)N[C@@H](CO)C(=O)N[C@@H](CCCCN)C(=O)N[C@@H](CC(C)C)C(=O)O)[C@@H](C)O | PSG G322A (PSD-95) | 1730 µM
CSCC[C@H](NC(=O)[C@H](CO)NC(=O)[C@H](Cc1ccc(O)cc1)NC(=O)[C@H](CC(C)C)NC(=O)[C@H](Cc1ccc(O)cc1)NC(=O)[C@H](Cc1ccc(O)cc1)NC(=O)[C@H](Cc1ccccc1)NC(=O)[C@H](Cc1ccc(O)cc1)NC(C)=O)C(=O)N[C@H](C(=O)N[C@@H](Cc1ccc(O)cc1)C(=O)N[C@H](C(=O)N[C@@H](CC(C)C)C(=O)N[C@H](C(=O)N[C@@H](CO)C(=O)N[C@@H](Cc1ccccc1)C(=O)O)C(C)C)[C@@H](C)O)C(C)C | PSG G322A (PSD-95) | 2260 µM
CC[C@H](C)[C@H](NC(=O)[C@H](CC(=O)O)NC(=O)[C@H](CCC(N)=O)NC(=O)CNC(=O)[C@@H](NC(=O)[C@H](CC(C)C)NC(=O)[C@@H]1CCCN1C(=O)[C@H](Cc1ccc(O)cc1)NC(C)=O)C(C)C)C(=O)N[C@H](C(=O)N[C@@H](CC(=O)O)C(=O)N[C@@H](CC(C)C)C(=O)N[C@@H](CCC(N)=O)C(=O)N[C@H](C(=O)N[C@@H](CCC(=O)O)C(=O)N[C@H](C(=O)O)C(C)C)[C@@H](C)O)[C@@H](C)CC | PSG G322A (PSD-95) | 258 µM

Data provenance is paper PMC9490041.
